- Species on record: Homo sapiens
- procedureSummary: in vitro
- measurementParameters: plasma, Stability
quantityKind: remaining at 1 h (%)
Give bare numbers, in %.

Quick check: remaining at 1 h of "CCCCOC(=O)[C@H](CC)NP(=O)(CO[C@@H]1C=C(F)[C@H](n2cnc3c(N)ncnc32)O1)N[C@@H](CC)C(=O)OCCCC" ?
99

###

- procedureSummary: Half life in dog hepatocytes at 2 uM by LC/MS/MS analysis
Would you mind telling me the reported half-life at 2 µM of each entry?
Answers are plain numbers, in h.

As a guide, the following entries are already answered.
Quick check: half-life at 2 µM of "CC(C)COC(=O)[C@H](C)NP(=O)(CO[C@@H]1C=C(F)[C@H](n2cnc3c(N)ncnc32)O1)N[C@@H](C)C(=O)OCC(C)C" ?
3.22

Quick check: half-life at 2 µM of "CCCCOC(=O)[C@H](Cc1ccccc1)NP(=O)(CO[C@@H]1C=C(F)[C@H](n2cnc3c(N)ncnc32)O1)N[C@@H](Cc1ccccc1)C(=O)OCCCC" ?
0.167

***
Quick check: half-life at 2 µM of CCOC(=O)[C@H](C)NP(=O)(CO[C@@H]1C=C(F)[C@H](n2cnc3c(N)ncnc32)O1)OCC(F)(F)F (stereo partly drawn) ?
1.43

###

Would you mind telling me the reported Activity of each entry?
- Tested on: PBMC
- procedureSummary: Metabolic stability in cathepsin A-overexpressing human PBMC assessed as compound degradation per ug of protein at 10 uM after 120 mins by scintillation counting
- measurementParameters: 2 h, 30 µM
One number for each entry, in pmol/min.

Quick check: Activity of CCC(CC)OC(=O)[C@H](C)NP(=O)(CO[C@@H]1C=C(F)[C@H](n2cnc3c(N)ncnc32)O1)Oc1ccccc1 (some centres undefined) ?
0

Quick check: Activity of CCCCCOC(=O)[C@H](C)NP(=O)(CO[C@@H]1C=C(F)[C@H](n2cnc3c(N)ncnc32)O1)Oc1ccccc1 (some centres undefined) ?
6.7

Quick check: Activity of CC(C)COC(=O)[C@H](Cc1ccccc1)NP(=O)(CO[C@@H]1C=C(F)[C@H](n2cnc3c(N)ncnc32)O1)Oc1ccccc1 (some centres undefined) ?
31

Report Activity for every entry below.
1. CCOC(=O)[C@H](Cc1ccccc1)NP(=O)(CO[C@@H]1C=C(F)[C@H](n2cnc3c(N)ncnc32)O1)N[C@@H](Cc1ccccc1)C(=O)OCC
2. CCCOC(=O)[C@H](Cc1ccccc1)NP(=O)(CO[C@@H]1C=C(F)[C@H](n2cnc3c(N)ncnc32)O1)N[C@@H](Cc1ccccc1)C(=O)OCCC
3. CC[C@H](NP(=O)(CO[C@@H]1C=C(F)[C@H](n2cnc3c(N)ncnc32)O1)N[C@@H](CC)C(=O)OC(C)C)C(=O)OC(C)C
4. CC[C@H](NP(=O)(CO[C@@H]1C=C(F)[C@H](n2cnc3c(N)ncnc32)O1)Oc1ccccc1)C(=O)OCC(C)C (some centres undefined)
5. Nc1ncnc2c1ncn2[C@@H]1O[C@H](OCP(=O)(N[C@@H](Cc2ccccc2)C(=O)OCC2CC2)Oc2ccccc2)C=C1F (some centres undefined)
6. CCOC(=O)[C@H](C)NP(=O)(CO[C@@H]1C=C(F)[C@H](n2cnc3c(N)ncnc32)O1)OCC(F)(F)F (some centres undefined)
7. CC(C)OC(=O)[C@H](C)NP(=O)(CO[C@@H]1C=C(F)[C@H](n2cnc3c(N)ncnc32)O1)Oc1ccccc1 (stereo in doubt; 18s)

1: 40; 2: 20; 3: 0.05; 4: 1.9; 5: 41; 6: 0.69; 7: 0.3

###

- procedureSummary: Half life in human hepatocytes at 2 uM by LC/MS/MS analysis
quantityKind: half-life at 2 µM (h)
One number for each entry, in h.

Quick check: half-life at 2 µM of CCOC(=O)[C@H](C)NP(=O)(CO[C@@H]1C=C(F)[C@H](n2cnc3c(N)ncnc32)O1)OCC(F)(F)F (stereo partly specified) ?
3.08

###

Would you mind telling me the reported clearance at 24 h of each entry?
- procedureSummary: Clearance in iv dosed Beagle dog after 24 hrs
- measurementParameters: in vivo
Numbers only, in mL/min/kg.

As a guide, the following entries are already answered.
Quick check: clearance at 24 h of C[C@H](NP(=O)(CO[C@@H]1C=C(F)[C@H](n2cnc3c(N)ncnc32)O1)Oc1ccccc1)C(=O)OC1CCC1 (stereo in doubt; 18r) ?
46

Quick check: clearance at 24 h of CC(C)COC(=O)[C@H](Cc1ccccc1)NP(=O)(CO[C@@H]1C=C(F)[C@H](n2cnc3c(N)ncnc32)O1)Oc1ccccc1 (some centres undefined) ?
61.7

Report clearance at 24 h for every entry below.
1. CC(C)OC(=O)[C@H](C)N[P@](=O)(CO[C@H](C)Cn1cnc2c(N)ncnc21)Oc1ccccc1 [TENOFOVIR ALAFENAMIDE]
2. CCCCOC(=O)[C@H](C)NP(=O)(CO[C@@H]1C=C(F)[C@H](n2cnc3c(N)ncnc32)O1)N[C@@H](C)C(=O)OCCCC

37.2
53.7

###

- procedureSummary: Half life in dog hepatocytes at 2 uM by LC/MS/MS analysis
- measurementParameters: t1/2
Note to self: use 1.0 only for half-life at 2 µM readings below 70 min; a reading exactly at 70 min still gets 0.0.

half-life at 2 µM strictly < 70 min for this compound? CCCCSC(=O)[C@@H](Cc1ccccc1)NP(=O)(CO[C@@H]1C=C(F)[C@H](n2cnc3c(N)ncnc32)O1)Oc1ccccc1 (stereo partly specified)
1.0

***
half-life at 2 µM strictly < 70 min for this compound? CC[C@H](NP(=O)(CO[C@@H]1C=C(F)[C@H](n2cnc3c(N)ncnc32)O1)Oc1ccccc1)C(=O)OCC(C)C (stereo partly specified)
0.0

half-life at 2 µM strictly < 70 min for this compound? CCCOC(=O)[C@H](C)NP(=O)(CO[C@@H]1C=C(F)[C@H](n2cnc3c(N)ncnc32)O1)Oc1ccccc1 (stereo partly specified)
0.0

half-life at 2 µM strictly < 70 min for this compound? "CCCCOC(=O)[C@H](CC)NP(=O)(CO[C@@H]1C=C(F)[C@H](n2cnc3c(N)ncnc32)O1)N[C@@H](CC)C(=O)OCCCC"
0.0

half-life at 2 µM strictly < 70 min for this compound? C[C@H](NP(=O)(CO[C@@H]1C=C(F)[C@H](n2cnc3c(N)ncnc32)O1)Oc1ccccc1)C(=O)OC1CCC1.Cl.Cl (stereo partly specified)
1.0

half-life at 2 µM strictly < 70 min for this compound? C[C@H](NP(=O)(CO[C@@H]1C=C(F)[C@H](n2cnc3c(N)ncnc32)O1)Oc1ccccc1)C(=O)OC1CCC1 (stereo in doubt; 18r(A))
0.0

###

- procedureSummary: Metabolic stability in dog plasma assessed as compound remaining after 60 mins
Would you mind telling me the reported remaining at 1 h of each entry?

Quick check: remaining at 1 h of "CCCCOC(=O)[C@H](C)NP(=O)(CO[C@@H]1C=C(F)[C@H](n2cnc3c(N)ncnc32)O1)N[C@@H](C)C(=O)OCCCC" ?
100%

Okay, now this compound:
Quick check: remaining at 1 h of "CC[C@H](NP(=O)(CO[C@@H]1C=C(F)[C@H](n2cnc3c(N)ncnc32)O1)N[C@@H](CC)C(=O)OC(C)C)C(=O)OC(C)C" ?
100%

###

- Tested on: Human immunodeficiency virus 1
- procedureSummary: Antiviral activity against HIV1 3B infected in human MT2 cells assessed as inhibition of virus-induced cytopathic effect after 5 days by XTT assay
- Type: functional, organism-based
- measurementParameters: mt2
quantityKind: EC50 (nM)
Give bare numbers, in nM.

Fill in the recorded EC50 for this molecule, with Human immunodeficiency virus 1 as test system: CC(C)OC(=O)[C@H](C)NP(=O)(CO[C@@H]1C=C(F)[C@H](n2cnc3c(N)ncnc32)O1)Oc1ccccc1 (stereo in doubt; 18s)
728

Fill in the recorded EC50 for this molecule, with Human immunodeficiency virus 1 as test system: CC(C)OC(=O)[C@H](C)NP(=O)(CO[C@@H]1C=C(F)[C@H](n2cnc3c(N)ncnc32)O1)Oc1ccccc1 (stereo in doubt; 24)
9.2

Fill in the recorded EC50 for this molecule, with Human immunodeficiency virus 1 as test system: C[C@H](NP(=O)(CO[C@@H]1C=C(F)[C@H](n2cnc3c(N)ncnc32)O1)Oc1ccccc1)C(=O)OC1CCC1 (stereo in doubt; 18r)
36

***
Fill in the recorded EC50 for this molecule, with Human immunodeficiency virus 1 as test system: C[C@H](NP(=O)(CO[C@@H]1C=C(F)[C@H](n2cnc3c(N)ncnc32)O1)Oc1ccccc1)C(=O)OC1CCC1.Cl.Cl (stereo partly drawn)
21

###

- procedureSummary: Half life in dog hepatocytes at 2 uM by LC/MS/MS analysis
quantityKind: half-life at 2 µM
Don't forget the unit after the number, please.

Quick check: half-life at 2 µM of "CC[C@H](NP(=O)(CO[C@@H]1C=C(F)[C@H](n2cnc3c(N)ncnc32)O1)N[C@@H](CC)C(=O)OCC(C)C)C(=O)OCC(C)C" ?
71 min

Quick check: half-life at 2 µM of "CC[C@H](NP(=O)(CO[C@@H]1C=C(F)[C@H](n2cnc3c(N)ncnc32)O1)N[C@@H](CC)C(=O)OC(C)C)C(=O)OC(C)C" ?
690 min

Quick check: half-life at 2 µM of CC(C)COC(=O)[C@H](Cc1ccccc1)NP(=O)(CO[C@@H]1C=C(F)[C@H](n2cnc3c(N)ncnc32)O1)OCC(F)(F)F (some centres undefined) ?
27 min

Okay, now this compound:
Quick check: half-life at 2 µM of "CCCCOC(=O)[C@H](C)NP(=O)(CO[C@@H]1C=C(F)[C@H](n2cnc3c(N)ncnc32)O1)N[C@@H](C)C(=O)OCCCC" ?
48 min
